Provide the recorded pKi for the entries that follow.
# target: Aurora-2 (Aurora A) (Homo sapiens)
# Sequence (O14965 whole entry): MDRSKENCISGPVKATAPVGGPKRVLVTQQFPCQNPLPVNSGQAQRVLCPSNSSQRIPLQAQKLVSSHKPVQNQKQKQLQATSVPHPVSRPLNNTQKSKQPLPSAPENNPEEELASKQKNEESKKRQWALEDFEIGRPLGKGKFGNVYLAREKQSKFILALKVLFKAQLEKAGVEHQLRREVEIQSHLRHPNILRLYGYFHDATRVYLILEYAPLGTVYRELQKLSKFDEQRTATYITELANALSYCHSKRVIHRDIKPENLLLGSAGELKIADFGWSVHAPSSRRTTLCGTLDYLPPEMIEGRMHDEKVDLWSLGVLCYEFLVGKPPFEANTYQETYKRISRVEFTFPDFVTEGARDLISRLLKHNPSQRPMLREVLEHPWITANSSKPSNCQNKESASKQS
# assay overview: Aurora-2 (Aurora A) inhibition assay, coupled enzyme
# Assay type: biochemical
# experimental parameters: read-out: Aurora A kinase Ki value
pKi: −log10 of the molar value.

# compound, pKi
data = [
    ("CC(C)=C1CN(c2cc(Nc3cc(C)n[nH]3)nc(Sc3ccc(NC(=O)CC(F)(F)F)cc3)n2)C1 [Compound 184]", "≥ 9.00"),
    ("CC1=NN=C(Nc2cc(N3CCC3)nc(Sc3ccc(NC(=O)c4ccccc4)cc3)n2)C1 [Compound 52]", "6.70 to 8.30"),
    ("Cc1cc(Nc2cc(N3CCC3)nc(Sc3ccc(N(C)C(=O)c4ccccc4F)cc3)n2)n[nH]1 [Compound 10]", "6.70 to 8.30"),
    ("CCC(=O)Nc1ccc(Sc2nc(Nc3cc(C)n[nH]3)cc(N3CC(O)(C4CCCCC4)C3)n2)cc1 [Compound 101]", "≥ 9.00"),
    ("CC1=NN=C(Nc2cc(N3CCC3)nc(Sc3ccc(NC(=O)C4CCCN4C)cc3)n2)C1 (centres unmarked) [Compound 6]", "6.70 to 8.30"),
    ("Cc1ccc2cc(Sc3nc(Nc4cc(C)[nH]n4)cc(N4CC(N5CCCC5)C4)n3)ccc2n1 [Compound 182]", "8.30 to 9.00"),
    ("Cc1cc(Nc2cc(N3CCC3)nc(Sc3ccc(NC(=O)C4(C(F)(F)F)CC4)cc3)n2)[nH]n1 [Compound 142]", "8.30 to 9.00"),
]

We next turn to a different compound, shown below.
The reported value for CCC(=O)Nc1ccc(Sc2nc(Nc3cc(C)n[nH]3)cc(N3CC(OC(C)(C)C)C3)n2)cc1 [Compound 67] in terms of pKi is ≥ 9.00

----------
# target: UniProt O14965
# assay overview: Aurora-2 (Aurora A) inhibition assay, coupled enzyme
# Type: biochemical
# experimental parameters: read-out: Aurora A kinase Ki value
measured endpoint: Ki

# compound, Ki
records = [
    ("CCC(=O)Nc1ccc(Sc2nc(Nc3cc(C)n[nH]3)cc(N3CC(O)(C(F)(F)F)C3)n2)cc1 [Compound 94]", "1 to 5 nM"),
    ("Cc1cc(Nc2cc(N3CC(F)(C4CC4)C3)nc(Sc3ccc(NS(C)(=O)=O)cc3)n2)[nH]n1 [Compound 151]", "≤ 1 nM"),
    ("Cc1cc(Nc2cc(N3CC(O)(C4CC4)C3)nc(Sc3ccc(NC(=O)C4CC4)c(F)c3)n2)[nH]n1 [Compound 109]", "≤ 1 nM"),
]

Could you report Ki for every entry in the following list?
1. Cc1cc(Nc2cc(N3CC(O)(C4CC4)C3)nc(Sc3cc(F)c4nc(C)ccc4c3)n2)[nH]n1 [Compound 172]
2. Cc1cc(Nc2cc(N3CCC3)nc(Sc3ccc(NC(=O)Cc4ccccc4Cl)cc3)n2)[nH]n1 [Compound 57]

Response:
1: ≤ 1 nM; 2: ≤ 1 nM

Could you report Ki for every entry in the following list?
1. Cc1cc(Nc2cc(N3CCC3)nc(Sc3ccc(NC(=O)c4cccc(F)c4F)cc3)n2)n[nH]1 [Compound 33]
2. Cc1cc(Nc2cc(N3CCC3)nc(Sc3ccc(NC(=O)OC(C)(C)C)cc3)n2)n[nH]1 [Compound 26]
3. Cc1cc(Nc2cc(N3CC(C)(O)C3)nc(Sc3ccc(NC(=O)c4ccccc4Cl)cc3)n2)[nH]n1 [Compound 50]
4. Cc1cc(Nc2cc(N3CCC3)nc(Sc3ccc(NC(=O)c4ccc(CN(C)C)cc4)cc3)n2)[nH]n1 [Compound 137]
5. CCOC1CN(c2cc(Nc3cc(C)[nH]n3)nc(Sc3ccc(NC(=O)c4ccccc4Cl)cc3)n2)C1 [Compound 37]
6. CCC(=O)Nc1ccc(Sc2nc(Nc3cc(C)n[nH]3)cc(N3CC(C)(N4CCOCC4)C3)n2)cc1 [Compound 88]
7. CCC1(F)CN(c2cc(Nc3cc(C)n[nH]3)nc(Sc3ccc(NC(=O)CC(F)(F)F)cc3)n2)C1 [Compound 196]
8. Cc1cc(Nc2cc(N3CC(F)(C4CC4)C3)nc(Nc3ccc4nc(C(F)(F)F)[nH]c4c3)n2)[nH]n1 [Compound 210]

Response:
1. 1 to 5 nM
2. 5 to 200 nM
3. ≤ 1 nM
4. 5 to 200 nM
5. ≤ 1 nM
6. ≤ 1 nM
7. ≤ 1 nM
8. 1 to 5 nM

Could you report Ki for every entry in the following list?
1. Cc1cc(Nc2cc(N3CCC3)nc(Sc3ccc(NC(=O)C4CCCCC4)cc3)n2)n[nH]1 [Compound 30]
2. Cc1cc(Nc2cc(N3CCC3)nc(Sc3ccc(NC(=O)Cc4ccccc4)cc3)n2)n[nH]1 [Compound 35]

Response:
["1 to 5 nM", "1 to 5 nM"]

----------
# target: JAK3 (Homo sapiens, UniProt P52333)
# Sequence (P52333 whole entry, species assumed): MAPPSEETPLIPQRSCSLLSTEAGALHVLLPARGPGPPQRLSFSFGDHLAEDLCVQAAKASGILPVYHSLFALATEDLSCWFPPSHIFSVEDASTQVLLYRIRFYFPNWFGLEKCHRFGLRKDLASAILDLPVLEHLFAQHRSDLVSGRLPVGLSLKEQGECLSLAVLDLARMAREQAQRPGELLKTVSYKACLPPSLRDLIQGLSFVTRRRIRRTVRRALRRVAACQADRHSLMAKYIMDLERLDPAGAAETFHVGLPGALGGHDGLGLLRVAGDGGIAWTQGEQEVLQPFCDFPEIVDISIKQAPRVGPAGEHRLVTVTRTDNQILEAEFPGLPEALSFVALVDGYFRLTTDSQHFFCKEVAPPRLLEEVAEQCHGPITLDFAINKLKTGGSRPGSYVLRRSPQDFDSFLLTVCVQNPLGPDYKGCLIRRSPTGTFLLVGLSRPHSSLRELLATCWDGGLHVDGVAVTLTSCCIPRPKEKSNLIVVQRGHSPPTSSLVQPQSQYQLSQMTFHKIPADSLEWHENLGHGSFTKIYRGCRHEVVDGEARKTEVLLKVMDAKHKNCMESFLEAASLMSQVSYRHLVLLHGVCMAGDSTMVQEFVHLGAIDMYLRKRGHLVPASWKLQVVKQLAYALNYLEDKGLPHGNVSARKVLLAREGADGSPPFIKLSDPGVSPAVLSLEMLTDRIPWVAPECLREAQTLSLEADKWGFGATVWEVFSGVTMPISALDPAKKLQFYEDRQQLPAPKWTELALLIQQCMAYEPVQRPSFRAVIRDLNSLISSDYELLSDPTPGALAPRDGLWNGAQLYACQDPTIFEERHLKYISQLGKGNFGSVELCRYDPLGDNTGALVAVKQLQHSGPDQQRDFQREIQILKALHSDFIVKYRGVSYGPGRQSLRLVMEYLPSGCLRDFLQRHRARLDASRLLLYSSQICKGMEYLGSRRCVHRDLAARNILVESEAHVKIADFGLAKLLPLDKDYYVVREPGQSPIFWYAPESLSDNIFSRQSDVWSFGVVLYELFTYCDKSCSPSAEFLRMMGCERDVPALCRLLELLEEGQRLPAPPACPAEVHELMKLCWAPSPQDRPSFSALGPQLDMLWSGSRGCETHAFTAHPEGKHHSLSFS
# assay overview: biochemical
pKi: −log10 of the molar value.
Provide the recorded pKi for the entries that follow.

Recorded results for 4 compounds are shown here.
# compound, val
measured = [
    ("Cc1cnc(Nc2cc(N3CCC3)nc(Sc3ccc(NC(=O)C4CC4)cc3)n2)s1", "5.70 to 6.30"),
    ("CCC(=O)Nc1ccc(Sc2nc(C#CC(C)(C)N3CCC3)cc(Nc3cc(C)n[nH]3)n2)cc1", "5.70 to 6.30"),
    ("Cc1cc(Nc2cc(N3CC(N4CCOCC4)C3)nc(Sc3ccc4nc(CC(F)(F)F)n(C)c4c3)n2)[nH]n1", "6.30 to 8.00"),
    ("Cc1cc(Nc2cc(N3CCC3)nc(Sc3ccc(NC(=O)Cc4ccccc4Cl)cc3)n2)[nH]n1", "6.30 to 8.00"),
]

Could you report pKi for every entry in the following list?
1. Cc1cc(Nc2cc(N3CCC3)nc(Sc3ccc(NS(C)(=O)=O)cc3)n2)[nH]n1
2. CCC(=O)Nc1ccc(Sc2nc(Nc3cc(C)n[nH]3)cc(N3CC(OC)(C(C)(C)C)C3)n2)cc1
3. O=C(CC(F)(F)F)Nc1ccc(Sc2nc(Nc3cc[nH]n3)cc(N3CC(F)(C4CC4)C3)n2)cc1
4. Cc1cc(Nc2cc(N3CC(OC(C)(C)C)C3)nc(Sc3ccc(NC(=O)c4ccccc4Cl)cc3)n2)[nH]n1
5. Cc1cc(Nc2cc(N3CC(O)(C4CC4)C3)nc(Sc3ccc(NC(=O)C4CC4)cc3)n2)n[nH]1
6. Cc1cc(Nc2cc(N3CC(C#N)C3)nc(Sc3ccc(NC(=O)c4ccccc4Cl)cc3)n2)n[nH]1
7. Cc1cc(Nc2cc(N3CCC3)nc(Sc3ccc(NC(=O)NCc4ccccc4)cc3)n2)n[nH]1
8. Cc1cc(Nc2cc(N3CCC3)nc(Sc3ccc(NC(=O)c4ccc(-c5ccccc5)cc4Cl)cc3)n2)[nH]n1

Response:
1: ≥ 8.00; 2: 6.30 to 8.00; 3: 6.30 to 8.00; 4: 6.30 to 8.00; 5: 6.30 to 8.00; 6: 6.30 to 8.00; 7: 6.30 to 8.00; 8: 6.30 to 8.00

Could you report pKi for every entry in the following list?
1. Cc1cnc(Nc2cc(N3CC(N)C3)nc(Sc3ccc(NC(=O)C4CC4)cc3)n2)s1
2. Cc1cc(Nc2cc(N3CC(F)(C4CC4)C3)nc(Sc3ccc(NC(=O)C4CC4)cc3F)n2)n[nH]1
3. Cc1cc(Nc2cc(N3CC(F)(C4CC4)C3)nc(Sc3ccc(NC(=O)C4CC4(F)F)cc3)n2)[nH]n1 (stereo not drawn)
4. Cc1cc(Nc2cc(N3CCC3)nc(Oc3ccc(NC(=O)c4ccccc4C(F)(F)F)cc3)n2)[nH]n1

Response:
["5.70 to 6.30", "6.30 to 8.00", "6.30 to 8.00", "6.30 to 8.00"]

Could you report pKi for every entry in the following list?
1. Cc1cc(Nc2cc(N3CC(O)(C4CC4)C3)nc(Sc3cc(F)c4nc(C)ccc4c3)n2)[nH]n1
2. CCC(=O)Nc1ccc(Sc2nc(Nc3cc(C)n[nH]3)cc(N3CC(N4CCOCC4)C3)n2)cc1
3. Cc1cc(Nc2cc(N3CC(N4CCOCC4)C3)nc(Sc3ccc4c(c3)CN(CC(F)(F)F)C4=O)n2)[nH]n1
4. Cc1cc(Nc2cc(N3CCC3)nc(Sc3ccc(NC(=O)c4ccncc4C(F)(F)F)cc3)n2)[nH]n1
5. Cc1ccc(C(=O)Nc2ccc(Sc3nc(Nc4cc(C)n[nH]4)cc(N4CCC4)n3)cc2)cn1
6. CCC(=O)Nc1ccc(Sc2nc(Nc3cc(C)n[nH]3)cc(N3CC(O)(C(C)CC)C3)n2)cc1 (stereo not drawn)
7. Cc1cc(Nc2cc(N3CC(F)(C4CC4)C3)nc(Oc3ccc(NC(=O)CC(F)(F)F)cc3)n2)[nH]n1
8. Cc1cc(Nc2cc(N3CCC3)nc(Sc3ccc(NC(=O)OC(C)(C)C)cc3)n2)n[nH]1

Response:
1. ≥ 8.00
2. 6.30 to 8.00
3. ≥ 8.00
4. 6.30 to 8.00
5. 6.30 to 8.00
6. 6.30 to 8.00
7. 6.30 to 8.00
8. 5.70 to 6.30

Could you report pKi for every entry in the following list?
1. Cc1cc(Nc2cc(N3CC(F)(C4CC4)C3)nc(Sc3ccc(NC(=O)CN(C)C)cc3)n2)[nH]n1
2. Cc1cc(Nc2cc(CN3CCC3)nc(Sc3ccc(NC(=O)c4ccccc4C(F)(F)F)cc3)n2)[nH]n1
3. Cc1cc(Nc2cc(N3CC(O)(C4CC4)C3)nc(Sc3ccc(NC(=O)C4CCCC4)cc3)n2)[nH]n1
4. Cc1cc(Nc2cc(N3CC(F)C3)nc(Sc3ccc(NC(=O)c4ccccc4Cl)cc3)n2)[nH]n1
5. COc1ccc(C(=O)Nc2ccc(Sc3nc(Nc4cc(C)n[nH]4)cc(N4CCC4)n3)cc2)cc1
6. Cc1cc(Nc2cc(N3CCC3)nc(Sc3ccc(NC(=O)c4cccc(CN(C)C)c4)cc3)n2)[nH]n1

Response:
1: 5.70 to 6.30; 2: 5.70 to 6.30; 3: 6.30 to 8.00; 4: 6.30 to 8.00; 5: 6.30 to 8.00; 6: 5.70 to 6.30
